# TARGET SYSTEM: KRAS G13D (Homo sapiens (Human), UniProt P01116+P62937, G13D)
# Sequence (P01116-2 other isoform, or with tags, fused parts or gaps G13D): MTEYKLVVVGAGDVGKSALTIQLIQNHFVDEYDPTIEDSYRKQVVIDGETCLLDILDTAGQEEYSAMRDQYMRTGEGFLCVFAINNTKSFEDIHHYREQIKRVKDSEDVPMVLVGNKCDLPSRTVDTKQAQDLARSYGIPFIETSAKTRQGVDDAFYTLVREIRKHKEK
# Sequence (P62937 whole entry): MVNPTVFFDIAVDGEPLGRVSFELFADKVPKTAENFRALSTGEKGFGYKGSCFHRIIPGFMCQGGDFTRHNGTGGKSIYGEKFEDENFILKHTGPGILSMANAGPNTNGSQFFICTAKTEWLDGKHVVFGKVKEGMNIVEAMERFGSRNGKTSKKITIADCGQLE
# ASSAY: Ras-Raf (BRAF RBD) disruption / FRET / MOA assay, KRAS G13D
# Format: biochemical
# EXPERIMENTAL CONDITIONS: IC50* KRAS G13D FRET data
QUANTITY: IC50

Measured IC50 of CCn1c(-c2cccnc2[C@H](C)OC)c2c3cc(ccc31)-c1cccc(c1)C[C@H](NC(=O)[C@H](C(C)C)N1CC[C@@]3(CCN(C(=O)C#C[C@@H]4COCCN4C)C3)C1=O)C(=O)N1CCC[C@H](N1)C(=O)OCC(C)(C)C2 (atropisomer, axis not shown) : 1000 to 10000 nM

Measured IC50 of CCn1c(-c2cccnc2[C@H](C)OC)c2c3cc(ccc31)-c1cc(O)cc(c1)C[C@H](NC(=O)[C@H](C(C)C)N(C)C(=O)[C@H]1CCN(S(=O)(=O)C=C(C)C)C1)C(=O)N1CCC[C@H](N1)C(=O)OCC(C)(C)C2 (atropisomer, axis not shown) : 100 to 1000 nM

Measured IC50 of C=CC(=O)N1CCO[C@H]2CN(C(=O)N(C)[C@H](C(=O)N[C@H]3Cc4cc(C(F)F)cc(n4)-c4ccc5c(c4)c(c(-c4cccnc4[C@H](C)OC)n5CC(F)(F)F)CC(C)(C)COC(=O)[C@@H]4CCCN(N4)C3=O)C(C)C)C[C@H]21 (atropisomer, axis not shown) : 1000 to 10000 nM

Measured IC50 of C=CC(=O)N1CC(CN2C(=O)O[C@H](C)[C@H]2C(=O)N[C@H]2Cc3cccc(c3)-c3ccc4c(c3)c(c(-c3cccnc3[C@H](C)OC)n4CC)CC(C)(C)COC(=O)[C@@H]3CCCN(N3)C2=O)C1 (atropisomer, axis not shown) : > 10000 nM

Measured IC50 of "C=CC(=O)N1CC[C@H](C(=O)N(C)[C@H](C(=O)N[C@H]2Cc3cc(O)cc(c3)-c3ccc4c(c3)c(c(-c3ncn(C)c3[C@H](C)OC)n4CC)CC(C)(C)COC(=O)[C@@H]3CCCN(N3)C2=O)C(C)C)C1" : > 10000 nM

Measured IC50 of C=CC(=O)N1CCO[C@@]2(CCN(C(=O)N(C)[C@H](C(=O)N[C@H]3Cc4nc(cs4)-c4ccc5c(c4)c(c(-c4cccnc4[C@H](C)OC)n5CC(F)(F)F)CC(C)(C)COC(=O)[C@@H]4CCCN(N4)C3=O)C(C)C)C2)C1 (atropisomer, axis not shown) : 100 to 1000 nM
